target: T1, human chemokine (C-C motif) receptor 8 (CCR8) (human, UniProt P51685 1-355); experiment: flow cytometry blocking, PBMC CCR8+ CD4+ cells; competitor PE-AB13 (its MFI is read)
T1 construct: On human peripheral blood lymphocytes / PBMC (native) or on human CCR8 GFP-transfected Ba/F3 cells; also called hCCR8; human CCR8
T1 sequence (P51685 whole entry): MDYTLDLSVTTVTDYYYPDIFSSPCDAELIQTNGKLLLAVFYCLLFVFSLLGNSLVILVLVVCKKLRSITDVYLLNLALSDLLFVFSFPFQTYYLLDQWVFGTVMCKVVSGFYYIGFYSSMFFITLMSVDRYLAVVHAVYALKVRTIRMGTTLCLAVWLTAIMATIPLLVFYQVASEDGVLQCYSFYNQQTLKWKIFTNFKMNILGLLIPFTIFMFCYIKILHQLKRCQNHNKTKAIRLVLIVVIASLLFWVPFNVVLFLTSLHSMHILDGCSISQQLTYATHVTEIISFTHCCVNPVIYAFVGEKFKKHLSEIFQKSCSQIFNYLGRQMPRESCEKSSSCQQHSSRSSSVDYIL
// returns 0 unless MFI is strictly below 700, in which case 1

Worked set:
>  <Binder>
AB15 (antibody, V domains shown, Hybridoma monoclonal; also called antibody 15; clone 15) VH: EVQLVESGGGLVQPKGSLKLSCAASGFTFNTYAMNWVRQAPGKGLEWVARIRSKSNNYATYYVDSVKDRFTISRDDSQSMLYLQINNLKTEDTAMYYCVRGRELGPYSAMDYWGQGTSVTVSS VL: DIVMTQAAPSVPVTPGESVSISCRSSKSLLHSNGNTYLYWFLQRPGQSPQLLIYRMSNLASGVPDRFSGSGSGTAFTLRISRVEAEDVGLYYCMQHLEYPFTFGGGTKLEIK

>  <Qualitative Label>
0

$$$$
>  <Binder>
AB8 (antibody, V domains shown, Hybridoma monoclonal; also called antibody 8; clone 8) VH: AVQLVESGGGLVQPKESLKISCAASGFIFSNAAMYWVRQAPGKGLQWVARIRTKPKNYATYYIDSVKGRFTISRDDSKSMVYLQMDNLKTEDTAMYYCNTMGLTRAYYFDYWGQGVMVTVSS VL: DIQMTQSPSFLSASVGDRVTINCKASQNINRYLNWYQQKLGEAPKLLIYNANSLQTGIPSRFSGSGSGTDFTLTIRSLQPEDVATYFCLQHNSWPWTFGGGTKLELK

>  <Qualitative Label>
1

$$$$
>  <Binder>
AB1 (antibody, V domains shown, Hybridoma monoclonal (mice or rats immunised); Used purified and PE-conjugated; also called antibody 1; clone 1) VH: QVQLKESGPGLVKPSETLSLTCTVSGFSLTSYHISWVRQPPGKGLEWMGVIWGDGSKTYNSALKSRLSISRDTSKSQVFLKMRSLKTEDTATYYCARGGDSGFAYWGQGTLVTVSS VL: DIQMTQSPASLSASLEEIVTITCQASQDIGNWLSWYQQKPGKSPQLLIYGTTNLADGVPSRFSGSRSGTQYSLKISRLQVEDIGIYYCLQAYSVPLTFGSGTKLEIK

>  <Qualitative Label>
0

$$$$
>  <Binder>
AB14 (antibody, V domains shown, Hybridoma monoclonal; also called antibody 14; clone 14) VH: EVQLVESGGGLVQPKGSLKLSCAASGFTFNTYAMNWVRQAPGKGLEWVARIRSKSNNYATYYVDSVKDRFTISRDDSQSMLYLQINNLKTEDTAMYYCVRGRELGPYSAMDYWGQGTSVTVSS VL: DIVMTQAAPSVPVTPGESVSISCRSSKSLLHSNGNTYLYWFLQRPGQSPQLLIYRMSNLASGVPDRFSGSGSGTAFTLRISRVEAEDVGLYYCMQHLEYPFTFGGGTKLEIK

>  <Qualitative Label>
1

$$$$

Could you please tell me whether MFI recorded for AB2 (antibody, V domains shown, Hybridoma monoclonal; also called antibody 2; clone 2) VH: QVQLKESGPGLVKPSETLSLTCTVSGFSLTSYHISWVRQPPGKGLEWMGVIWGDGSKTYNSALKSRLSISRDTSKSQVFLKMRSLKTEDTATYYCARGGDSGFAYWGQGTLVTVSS VL: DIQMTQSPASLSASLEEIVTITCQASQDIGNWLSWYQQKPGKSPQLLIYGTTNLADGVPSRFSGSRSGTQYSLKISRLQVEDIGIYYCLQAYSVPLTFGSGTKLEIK is less than 700?
0

Cited source: patent US20240360228A1
